Molecular target: Mas-related G-protein coupled receptor member X2 (Homo sapiens, UniProt Q96LB1)
Sequence (Q96LB1 whole entry): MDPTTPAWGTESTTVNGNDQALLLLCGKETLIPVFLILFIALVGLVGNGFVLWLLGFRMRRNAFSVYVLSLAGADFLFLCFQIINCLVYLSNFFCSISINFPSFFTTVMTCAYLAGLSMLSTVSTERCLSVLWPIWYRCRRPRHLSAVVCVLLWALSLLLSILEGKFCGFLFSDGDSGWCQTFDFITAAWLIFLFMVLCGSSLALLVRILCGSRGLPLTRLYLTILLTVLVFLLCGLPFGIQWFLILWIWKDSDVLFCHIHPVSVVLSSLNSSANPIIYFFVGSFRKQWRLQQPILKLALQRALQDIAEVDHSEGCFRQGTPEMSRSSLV
Test: LAD2 Degranulation Assay (Protocol 1)
Each record here notes measured IC50.

>>> valuereported("C[C@@H](C(=O)Nc1nc2cc3c(cc2s1)OC(F)(F)O3)N1CCC(F)(F)[C@@H](c2c[nH]c(=O)c(CO)c2)C1")
"> 3 µM"
>>> valuereported("CNCc1cc([C@H]2CN([C@@H](C)C(=O)Nc3nc4cc5c(cc4s3)OC(F)(F)O5)CCC2(F)F)c[nH]c1=O")
"> 3 µM"

Now consider a different molecule.
Ask: Determine reported IC50 for C[C@@H](C(=O)Nc1nc2cc3c(cc2s1)OC(F)(F)O3)N1CCC(F)(F)[C@@H](c2c[nH]c(=O)c(CO)n2)C1 ; test system: Mas-related G-protein coupled receptor member X2 (Homo sapiens, UniProt Q96LB1).
Reply: > 3 µM
